target: hT1R1/hT1R3 umami receptor expressed in an HEK293 cell line (Homo sapiens, UniProt Q7RTX0+Q7RTX1); construct: expressed in transfected cells; host or cells: HEK293 derivative, clone I-17, expression induced with mifepristone; test: In vitro hT1R1/hT1R3 umami taste receptor activation assay (FLIPR, dose response); assay type: cell-based; details: read-out: Umami EC50
Sequence (Q7RTX1 21-841): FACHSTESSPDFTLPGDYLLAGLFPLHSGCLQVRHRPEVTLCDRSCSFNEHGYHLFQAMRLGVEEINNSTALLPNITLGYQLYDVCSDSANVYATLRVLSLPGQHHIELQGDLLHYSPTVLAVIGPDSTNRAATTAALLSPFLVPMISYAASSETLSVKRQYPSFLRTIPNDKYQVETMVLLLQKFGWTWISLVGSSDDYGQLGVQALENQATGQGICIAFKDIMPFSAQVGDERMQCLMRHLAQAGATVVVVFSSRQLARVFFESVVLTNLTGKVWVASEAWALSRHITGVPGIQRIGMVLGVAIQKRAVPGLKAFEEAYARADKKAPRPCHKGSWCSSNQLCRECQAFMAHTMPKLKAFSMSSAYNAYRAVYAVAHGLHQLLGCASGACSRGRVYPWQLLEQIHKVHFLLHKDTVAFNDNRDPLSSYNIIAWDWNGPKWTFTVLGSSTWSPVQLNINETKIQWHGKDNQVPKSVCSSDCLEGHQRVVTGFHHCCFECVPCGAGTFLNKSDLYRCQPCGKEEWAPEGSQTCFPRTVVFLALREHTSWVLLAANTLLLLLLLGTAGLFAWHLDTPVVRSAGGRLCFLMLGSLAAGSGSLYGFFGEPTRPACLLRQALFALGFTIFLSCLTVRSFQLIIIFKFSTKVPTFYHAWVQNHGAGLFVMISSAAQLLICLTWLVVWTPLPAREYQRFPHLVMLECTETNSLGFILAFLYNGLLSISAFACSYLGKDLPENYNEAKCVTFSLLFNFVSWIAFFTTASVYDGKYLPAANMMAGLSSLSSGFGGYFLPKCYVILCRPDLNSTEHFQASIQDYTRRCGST
Sequence (Q7RTX0 21-852): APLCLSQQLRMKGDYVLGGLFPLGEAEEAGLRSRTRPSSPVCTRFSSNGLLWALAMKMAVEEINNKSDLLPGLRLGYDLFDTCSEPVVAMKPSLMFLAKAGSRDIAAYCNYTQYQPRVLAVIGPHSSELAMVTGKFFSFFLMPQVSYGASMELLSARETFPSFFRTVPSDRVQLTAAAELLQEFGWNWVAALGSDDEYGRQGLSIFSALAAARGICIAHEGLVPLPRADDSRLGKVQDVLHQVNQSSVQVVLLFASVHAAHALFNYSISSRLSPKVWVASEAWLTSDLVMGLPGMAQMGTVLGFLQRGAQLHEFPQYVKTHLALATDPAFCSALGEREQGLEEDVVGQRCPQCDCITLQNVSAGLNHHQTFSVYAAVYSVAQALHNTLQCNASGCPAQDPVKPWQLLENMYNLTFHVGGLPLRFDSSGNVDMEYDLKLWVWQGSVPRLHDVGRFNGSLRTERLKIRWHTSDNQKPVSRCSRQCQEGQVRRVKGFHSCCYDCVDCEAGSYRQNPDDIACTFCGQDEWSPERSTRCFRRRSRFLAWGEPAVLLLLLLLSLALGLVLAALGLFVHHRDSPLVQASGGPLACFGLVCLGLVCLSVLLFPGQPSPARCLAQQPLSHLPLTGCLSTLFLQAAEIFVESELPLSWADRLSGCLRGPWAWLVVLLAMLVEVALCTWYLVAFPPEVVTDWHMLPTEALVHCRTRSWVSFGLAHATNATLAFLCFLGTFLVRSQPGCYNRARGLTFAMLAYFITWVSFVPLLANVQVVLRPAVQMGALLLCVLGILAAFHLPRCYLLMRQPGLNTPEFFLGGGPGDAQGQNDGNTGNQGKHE
propertyLabel: EC50 (µM)

Some solved cases for reference:
{"compound": "COc1ccc(C(=O)CC(SCO)c2ccc(Cl)cc2)cc1 (centres unmarked)", "EC50, µM": 6.05}
{"compound": "Cc1cc(CNC(=S)Nc2ccc(OC(C)C)cc2)no1", "EC50, µM": 11}
{"compound": "CSc1ccccc1NC(=S)NC1CCCCC1C (centres unmarked)", "EC50, µM": 3}

I. CC(C)c1ccc(NC(=S)NCCc2ccccn2)cc1
II. CC(C)(C)c1ccc(NC(=S)NCc2ccccn2)cc1
Kindly compare I with II and tell me which has the lower EC50 figure. Return value: the label identifying the chosen record.
I
